Tested target: MTP (Homo sapiens, UniProt P55157)
Sequence (P55157 19-894, species assumed): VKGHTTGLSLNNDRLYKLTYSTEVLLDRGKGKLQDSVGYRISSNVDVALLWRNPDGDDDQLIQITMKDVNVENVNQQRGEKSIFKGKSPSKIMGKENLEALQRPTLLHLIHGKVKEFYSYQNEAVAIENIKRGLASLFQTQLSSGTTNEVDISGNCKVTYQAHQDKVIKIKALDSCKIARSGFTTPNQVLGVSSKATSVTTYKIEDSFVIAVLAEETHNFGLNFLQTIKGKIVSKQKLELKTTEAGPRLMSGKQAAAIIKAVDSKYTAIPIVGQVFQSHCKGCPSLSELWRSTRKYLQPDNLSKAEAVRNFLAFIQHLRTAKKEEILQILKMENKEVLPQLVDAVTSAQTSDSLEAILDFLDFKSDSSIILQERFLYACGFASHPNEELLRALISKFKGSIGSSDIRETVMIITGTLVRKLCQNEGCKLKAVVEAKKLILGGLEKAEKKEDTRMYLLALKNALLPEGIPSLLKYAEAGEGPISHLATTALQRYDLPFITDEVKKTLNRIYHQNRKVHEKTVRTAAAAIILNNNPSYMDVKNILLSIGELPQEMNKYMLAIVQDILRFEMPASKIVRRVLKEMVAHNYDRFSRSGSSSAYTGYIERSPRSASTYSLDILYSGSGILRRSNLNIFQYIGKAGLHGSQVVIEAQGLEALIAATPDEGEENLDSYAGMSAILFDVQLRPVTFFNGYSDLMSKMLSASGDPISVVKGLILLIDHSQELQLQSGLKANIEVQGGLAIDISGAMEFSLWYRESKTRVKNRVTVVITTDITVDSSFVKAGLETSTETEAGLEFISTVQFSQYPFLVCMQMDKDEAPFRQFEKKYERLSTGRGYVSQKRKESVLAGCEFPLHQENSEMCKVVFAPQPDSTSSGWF
Sequence (P07237 18-508 partner, species assumed): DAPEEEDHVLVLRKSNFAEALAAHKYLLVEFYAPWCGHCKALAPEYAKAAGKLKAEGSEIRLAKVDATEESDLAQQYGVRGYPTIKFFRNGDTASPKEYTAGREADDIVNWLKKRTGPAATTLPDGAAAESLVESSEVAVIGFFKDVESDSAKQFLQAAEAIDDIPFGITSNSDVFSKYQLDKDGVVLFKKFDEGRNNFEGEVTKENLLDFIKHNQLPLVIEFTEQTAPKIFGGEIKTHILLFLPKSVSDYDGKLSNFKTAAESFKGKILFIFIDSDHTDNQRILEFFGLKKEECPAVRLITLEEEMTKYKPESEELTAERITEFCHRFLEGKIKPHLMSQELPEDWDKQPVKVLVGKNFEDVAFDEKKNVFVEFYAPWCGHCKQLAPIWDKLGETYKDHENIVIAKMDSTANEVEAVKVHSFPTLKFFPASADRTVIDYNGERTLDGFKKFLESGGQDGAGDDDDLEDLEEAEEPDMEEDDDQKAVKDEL
Test protocol: MTP assay (triglyceride transfer from donor to acceptor vesicles)
Format: biochemical
Reported conditions: MTP activity, percent triglyceride transfer, 37° C.; read-out: pIC50 values (= −log IC50 value) (converted)
log10 of IC50 values for the molecules below.
Scale: decimal log of IC50, IC50 in nM.

Field: example entries. Status: answers known.
>>> data_value("COC(=O)CCNC(=O)CC1CCN(c2ccc(NC(=O)c3cccc(C)c3-c3ccc(C(F)(F)F)cc3)cc2)CC1")
0.21
>>> data_value("CCOC(=O)C(CCSC)NC(=O)CC1CCN(c2ccc(NC(=O)c3ccccc3-c3ccc(C(F)(F)F)cc3)cc2)CC1 (stereo not shown)")
1.41
>>> data_value("CCOC(=O)CC[C@@H](NC(=O)CC1CCN(c2ccc(NC(=O)c3cccc(C)c3-c3ccc(C(F)(F)F)cc3)cc2)CC1)C(=O)OCC")
0.48
>>> data_value("CCOC(=O)CNC(=O)CC1CCN(c2ccc(NC(=O)c3ccccc3-c3ccc(C(F)(F)F)cc3)cc2)CC1")
0.70

Request: Recorded log10 of IC50 for CCOC(=O)[C@@H](C)NC(=O)CC1CCN(c2ccc(NC(=O)c3ccccc3-c3ccc(C(F)(F)F)cc3)cc2)CC1 , please?
Response: 0.53

Request: Recorded log10 of IC50 for CCOC(=O)C(C)NC(=O)CC1CCN(c2ccc(NC(=O)c3ccccc3-c3ccc(C(F)(F)F)cc3)cc2)CC1 (stereo not shown) , please?
Response: 0.31

Request: Recorded log10 of IC50 for CCOC(=O)CN(C)C(=O)CC1CCN(c2ccc(NC(=O)c3ccccc3-c3ccc(C(F)(F)F)cc3)cc2)CC1 , please?
Response: 1.84

Request: Recorded log10 of IC50 for CCOC(=O)C(Cc1c[nH]c2ccccc12)NC(=O)CC1CCN(c2ccc(NC(=O)c3ccccc3-c3ccc(C(F)(F)F)cc3)cc2)CC1 (stereo not shown) , please?
Response: 0.97

Request: Recorded log10 of IC50 for COC(=O)[C@@H](C)NC(=O)CC1CCN(c2ccc(NC(=O)c3cccc(C)c3-c3ccc(C(F)(F)F)cc3)cc2)CC1 , please?
Response: 0.23

Request: Recorded log10 of IC50 for CCOC(=O)CCNC(=O)CC1CCN(c2ccc(NC(=O)c3ccccc3-c3ccc(C(F)(F)F)cc3)cc2)CC1 , please?
Response: 0.92
